- SYSTEM_TESTED: T1, biotinylated Aβ1-40 peptide (biotinylated (N-biotinylated in Example 7))
- T1 construct: captured on streptavidin (SA) chip; also called Biotinylated Aβ peptide 1-40; Aβ1-40 on SA chip
- METHOD: SPR, Fab over Aβ1-40 on SA chip; kon may be assumed = 9TL (footnote 2)
Exercise: state measured kon for each of the binders provided.
// return numeric value only (unit: M⁻¹ s⁻¹, not printed)

Param item = 9TL variant M27 Fab (Fab, V domains shown, Fab; human IgG2 CH1 and kappa CL) VH: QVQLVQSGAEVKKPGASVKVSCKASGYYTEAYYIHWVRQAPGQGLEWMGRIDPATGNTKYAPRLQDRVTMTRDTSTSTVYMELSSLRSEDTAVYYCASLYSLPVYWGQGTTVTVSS VL: DVVMTQSPLSLPVTLGQPASISCKSSQSLLYSDAKTYLNWFQQRPGQSPRRLIYQISRLDPGVPDRFSGSGSGTDFTLKISRVEAEDVGVYYCLQGTHYPELFGQGTRLEIKR ; retrieve measured kon.
318000

// query kon value for entry 9TL variant W1 Fab (Fab, V domains shown, Fab; human IgG2 CH1 and kappa CL) VH: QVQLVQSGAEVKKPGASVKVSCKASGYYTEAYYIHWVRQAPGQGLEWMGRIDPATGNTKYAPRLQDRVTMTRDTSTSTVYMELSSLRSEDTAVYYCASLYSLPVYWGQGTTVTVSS VL: DVVMTQSPLSLPVTLGQPASISCKSSQSLLASDSKTYLNWFQQRPGQSPRRLIYQISRLDPGVPDRFSGSGSGTDFTLKISRVEAEDVGVYYCLQGTHYPVTFGQGTRLEIKR
318000

Reported kon for 9TL variant M49 Fab (Fab, V domains shown, Fab; human IgG2 CH1 and kappa CL) VH: QVQLVQSGAEVKKPGASVKVSCKASGYYTEAYYIHWVRQAPGQGLEWMGRIDPATGNTKYAPRLQDRVTMTRDTSTSTVYMELSSLRSEDTAVYYCASLYSLPNYWGQGTTVTVSS VL: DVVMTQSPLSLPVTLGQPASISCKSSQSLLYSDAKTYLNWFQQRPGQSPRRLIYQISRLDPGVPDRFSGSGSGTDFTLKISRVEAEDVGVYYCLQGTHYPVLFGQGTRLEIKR : what is it?
318000
